# nuclear beta-catenin stimulation listing for each entry below
- assay_details: stimulators of nuclear beta-catenin in C2C12, primary screen, imaging, WNT3A-conditioned medium, mouse C2C12, NPC library (AID 1117326); also: reference of the scale not given here
- assay_context: stimulation, at 2 µM, stronger effect = higher value
Express your answer in %, writing the number without its unit.

> print(dat)
                                   compound  recorded.measurement
1  CN(C)CCC[C@@]1(c2ccc(F)cc2)OCc2cc(C#N)ccc21                  -0.7
2  Nc1nc(=O)n([C@@H]2O[C@H](CO)[C@@H](O)[C@@H]2F)cc1I                   1.8

Inquiry: Given the compound O=C(c1cc(O)c(O)c(O)c1)c1ccc(O)c(O)c1O , write its reported nuclear beta-catenin stimulation.
Reply text: 17.1

Inquiry: Given the compound CCCC(=O)Nc1ccc(O)c(C(C)=O)c1 , write its reported nuclear beta-catenin stimulation.
Reply text: 0.4

Inquiry: Given the compound CC(=O)S[C@@H]1CC2=CC(=O)CC[C@]2(C)[C@H]2CC[C@@]3(C)[C@@H](CC[C@@]34CCC(=O)O4)[C@H]12 , write its reported nuclear beta-catenin stimulation.
Reply text: 2.4

Inquiry: Given the compound COc1cccc(CCc2ccccc2OCC(CN(C)C)OC(=O)CCC(=O)O)c1 (stereo not given) , write its reported nuclear beta-catenin stimulation.
Reply text: 3.9

Inquiry: Given the compound COc1ccc(S(=O)(=O)Nc2nnc(CC(C)C)s2)cc1 , write its reported nuclear beta-catenin stimulation.
Reply text: -0.5
